Reference for the values: PubChem BioAssay (NCI)

Tested on: SW-620 colon
protocol_text: NCI tumour cell line growth inhibition, 48 h
Consider the following molecules and their measured TGI readings.

molecule	TGI
CCCCNP1(NCCCC)=NP(NCCCC)(NCCCC)=NP(NCCCC)(NCCCC)=NP(NCCCC)(NCCCC)=N1	15.9 µM
Cc1cc2oc(=O)cc(OC/C=C3/CCC(=O)O3)c2cc1C	11.6 µM
COc1ccc(C(=O)Nc2ccn(CCOC(=O)c3ccc(OC)cc3)c(=O)n2)cc1	> 100 µM
O=C(O)C1Cc2[nH]c3ccccc3c2C2CCCC12 (stereo unspecified)	> 100 µM
O=C1C(c2ccccc2)=[N+]([O-])c2cc([N+](=O)[O-])ccc21	> 100 µM
Cc1ccc(C(CCO)CCO)nc1	> 100 µM
CC(/C=C1\CCC(CN(C)C)C1=O)c1cccc(Br)c1 (stereo unspecified)	26.2 µM
CCN(CC)CCCNC(=O)c1ccccc1Nc1c(Cl)cccc1Cl	30.1 µM
COc1ccccc1-c1ccc2c(N)c(C(=O)c3ccc4c(c3)OCO4)sc2n1	> 100 µM
C=C1CCCC2OC(OC)CCC12 (stereo unspecified)	> 100 µM
CCCc1nn(C)c(CCC(=O)N(Cc2ccccc2)Cc2ccccc2)c1CC	> 100 µM
